Recorded IC50 values for a group of molecules are listed next.
study target: lipase (Sus scrofa)
Construct: purchased Solar Bio Science Co. Ltd. (Beijing, China) L3126
Sequence (P00591 whole entry): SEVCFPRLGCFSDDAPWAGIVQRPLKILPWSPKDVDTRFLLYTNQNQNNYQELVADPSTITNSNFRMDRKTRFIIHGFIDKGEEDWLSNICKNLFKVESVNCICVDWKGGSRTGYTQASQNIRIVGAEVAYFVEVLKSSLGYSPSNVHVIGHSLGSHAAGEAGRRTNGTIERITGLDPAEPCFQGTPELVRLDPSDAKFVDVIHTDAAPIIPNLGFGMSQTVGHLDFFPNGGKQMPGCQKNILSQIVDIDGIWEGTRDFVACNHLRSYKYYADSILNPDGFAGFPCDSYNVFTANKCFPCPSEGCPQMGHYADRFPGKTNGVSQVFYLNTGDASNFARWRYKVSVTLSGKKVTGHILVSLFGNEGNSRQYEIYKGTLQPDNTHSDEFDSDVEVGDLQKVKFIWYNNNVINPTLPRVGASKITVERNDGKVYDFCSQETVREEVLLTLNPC
procedure text: Assay for lipase inhibitory activity (4-methylumbelliferyl oleate substrate, fluorescence of 4-methylumbelliferone)
Type: biochemical
applied conditions: reference standards (purity > 98%), eight diluted concentrations; 25°C, 20 min; read-out: IC50 (μg/mL) (converted)
Numbers only here, please. The scale is µM.

The cases that follow already have their IC50 on record.
O=C(O)c1cc(O)c2c(c1)C(=O)c1cccc(O)c1C2=O :: 813
Oc1ccc(/C=C/c2cc(O)cc(O)c2)cc1 :: 2470
COc1cc(O)c2c(c1)C(=O)c1cc(C)cc(O)c1C2=O :: 2860

Let us examine a further case.
Query string: Quick check: IC50 of Cc1cc(O)c2c(c1)C(=O)c1cc(O)cc(O)c1C2=O ?
Result string: 1290
